The reported measurements were obtained from patent US20250064941A1.

Target: human Siglec-2/CD22 protein (Homo sapiens, UniProt P20273)
Sequence (P20273 20-847): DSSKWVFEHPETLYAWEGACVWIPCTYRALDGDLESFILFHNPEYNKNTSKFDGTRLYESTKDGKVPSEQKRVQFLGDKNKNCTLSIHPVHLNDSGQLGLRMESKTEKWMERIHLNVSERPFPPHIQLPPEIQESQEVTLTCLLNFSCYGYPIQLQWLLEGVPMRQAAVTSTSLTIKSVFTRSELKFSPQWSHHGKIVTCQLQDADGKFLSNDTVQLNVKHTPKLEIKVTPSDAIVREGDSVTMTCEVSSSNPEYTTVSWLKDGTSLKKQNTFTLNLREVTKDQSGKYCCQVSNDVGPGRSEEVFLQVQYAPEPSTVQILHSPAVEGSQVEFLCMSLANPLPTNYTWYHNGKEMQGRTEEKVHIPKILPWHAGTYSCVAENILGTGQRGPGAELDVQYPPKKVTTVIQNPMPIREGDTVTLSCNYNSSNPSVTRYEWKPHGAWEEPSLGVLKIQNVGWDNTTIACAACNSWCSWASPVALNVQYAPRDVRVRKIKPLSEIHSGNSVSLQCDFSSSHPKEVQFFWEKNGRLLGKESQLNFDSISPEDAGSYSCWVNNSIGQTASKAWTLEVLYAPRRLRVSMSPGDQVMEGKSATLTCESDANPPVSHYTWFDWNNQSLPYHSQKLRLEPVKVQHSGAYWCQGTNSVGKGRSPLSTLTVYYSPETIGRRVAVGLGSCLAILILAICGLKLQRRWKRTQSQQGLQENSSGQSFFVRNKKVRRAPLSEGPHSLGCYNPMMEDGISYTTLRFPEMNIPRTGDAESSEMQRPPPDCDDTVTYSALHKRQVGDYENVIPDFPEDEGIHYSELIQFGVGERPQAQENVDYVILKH
Experiment: SPR binding affinity to human CD22
Details: steady-state analysis
molecules and their reported Kd

{"columns": ["Molecule", "Test target", "Kd"],
 "data": [
  ["C#CCOCCOCCNc1c(NCCCCCCO[C@]2(C(=O)O)C[C@H](O)[C@@H](NC(=O)CO)[C@H]([C@H](O)[C@H](O)CNC(=O)c3ccc(F)cc3)O2)c(=O)c1=O [Compound 232]", "human Siglec-2/CD22 protein (Homo sapiens, UniProt P20273)", "1 to 10 µM"],
  ["C#CCOCCOCCO[C@]1(C(=O)O)C[C@H](O)[C@@H](NC(=O)CO)[C@H]([C@H](O)[C@H](O)CNC(=O)Cc2cccc(Cl)c2)O1 [Compound 125]", "human Siglec-2/CD22 protein (Homo sapiens, UniProt P20273)", "< 1 µM"],
  ["C#CCOCCCCCCO[C@]1(C(=O)O)C[C@H](O)[C@@H](Nc2c(NC)c(=O)c2=O)[C@H]([C@H](O)[C@H](O)CNC(=O)Cc2ccc(Cl)cc2)O1 [Compound 191]", "human Siglec-2/CD22 protein (Homo sapiens, UniProt P20273)", "< 1 µM"]
]}
